Listing of recorded Relative MIC by entry.
# System: E. coli ATCC 25922 (SEN) and E. coli NCTC13846 (MDR)
# Assay summary: Frequency-of-resistance (FoR) assay, relative MIC of mutants
# Format: cell-based, Escherichia coli
# Condition label: Escherichia coli ATCC 25922 (EC-SEN); evolved line 1 versus ancestor
// print number alone

See these solved cases before continuing.
- C[C@H]1c2cccc(O)c2C(=O)C2=C(O)[C@]3(O)C(=O)C(C(N)=O)=C(O)[C@@H](N(C)C)[C@@H]3[C@@H](O)[C@@H]21: 2
- Nc1nc(-n2cc(C(=O)O)c(=O)c3cc(F)c(N4CC(O)C4)c(Cl)c32)c(F)cc1F: 1

*Q* Query: Relative MIC; subject: "CN(C)c1cc(CNCC(C)(C)C)c(O)c2c1C[C@H]1C[C@H]3[C@H](N(C)C)C(O)=C(C(N)=O)C(=O)[C@@]3(O)C(O)=C1C2=O"
*A* 2

*Q* Query: Relative MIC; subject: "CN(C)[C@@H]1C(O)=C(C(N)=O)C(=O)[C@@]2(O)C(O)=C3C(=O)c4c(O)c(NC(=O)CN5CCCC5)cc(F)c4C[C@H]3C[C@@H]12"
*A* 2
